experiment: Cell Viability - LYMP2-007 (AID 979); details: LYMP2-007 lymphoblastoid cell viability; series mostly up to 92.2 µM;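 also: cells exposed to compound for 24 h before reading; nearly all actives have a fitted effect of over 60% in size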
Inconclusive results are not listed. Calls of active or inactive are those of the source. Calls follow the shape of the dose curve; as a rule, active = well fitted cell-killing curve with a large enough effect; inconclusive = small, poorly fitted or top-dose-only effect; inactive = flat fitted curve, though single readings scatter.
Could you please pick one outcome from this set? active, inactive

// known answers, use as guide
[
  {
    "Compound": "OC(c1ccc(Cl)cc1)(c1ccc(Cl)cc1)C(Cl)(Cl)Cl",
    "Assigned Category": "inactive"
  },
  {
    "Compound": "CC(C)CC(C)Nc1ccc(Nc2ccccc2)cc1 (stereo not drawn)",
    "Assigned Category": "active"
  },
  {
    "Compound": "[Cd+2].[Cl-].[Cl-]",
    "Assigned Category": "active"
  },
  {
    "Compound": "c1ccc2cc3c(cc2c1)-c1cccc2cccc-3c12",
    "Assigned Category": "inactive"
  },
  {
    "Compound": "FC(F)(F)c1ccc(Cl)cc1",
    "Assigned Category": "inactive"
  }
]

Input: Which outcome was assigned to "[CH3][Hg][Cl]" in this test?
Output: active

Input: Which outcome was assigned to "O=C(CCl)c1ccccc1" in this test?
Output: active

Input: Which outcome was assigned to "N#CSCSC#N" in this test?
Output: active

Input: Which outcome was assigned to "O=[N+]([O-])C(Br)Br" in this test?
Output: active

Input: Which outcome was assigned to "CC(=O)[O-].CC(=O)[O-].O.O.[Cd+2]" in this test?
Output: active

Input: Which outcome was assigned to "O=Nc1ccc(Nc2ccccc2)cc1" in this test?
Output: active

Input: Which outcome was assigned to O=C(O)C1C(C(=O)O)C2(Cl)C(Cl)=C(Cl)C1(Cl)C2(Cl)Cl (stereo not drawn) in this test?
Output: inactive

Input: Which outcome was assigned to "C#CCO" in this test?
Output: inactive

====

Entries and their max response
assay: qHTS assay for small molecule antagonists of peroxisome proliferator-activated receptor delta signaling (AID 588535); conditions: HEK293T PPARd-UAS-bla, beta-lactamase FRET ratio, 18 h; 460 nm channel;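 also: cells co-treated with a PPAR-delta agonist as stimulator during compound exposure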
Inconclusive results are not listed.
Only the number, expressed in %, is required.

Worked set:
[
  {
    "Compound": "CCSCCSP(=O)(OC)OC",
    "max response / %": -10.5
  },
  {
    "Compound": "O=P(Oc1ccccc1)(Oc1ccccc1)Oc1ccccc1",
    "max response / %": 29
  },
  {
    "Compound": "CCC[CH2][Sn]1([CH2]CCC)[O]C(=O)C=CC(=O)[O]1",
    "max response / %": -94
  }
]

Input: Return reported max response; argument: "CCNc1nc(NC(C)C)nc(OC)n1"
Output: 24.4

Input: Return reported max response; argument: "COC(=O)c1ccccc1S(=O)(=O)NC(=O)Nc1nc(C)nc(OC)n1"
Output: 36.9

Input: Return reported max response; argument: "CCN(CC)c1nc(C)cc(OP(=S)(OC)OC)n1"
Output: 56.7

Input: Return reported max response; argument: "CCOC(=O)COc1cc(-c2nn(C)c(OC(F)F)c2Cl)c(F)cc1Cl"
Output: 58.4

Input: Return reported max response; argument: "C=CC(=O)OCCCCCC(C)C"
Output: 38.5

Input: Return reported max response; argument: "CC(=NC#N)N(C)Cc1ccc(Cl)nc1"
Output: 24.8

Input: Return reported max response; argument: CC1CCCCC1NC(=O)Nc1ccccc1 (stereo not drawn)
Output: 3.43

Input: Return reported max response; argument: "CNC(=O)Oc1ccc(N(C)C)c(C)c1"
Output: -23.4

Input: Return reported max response; argument: "CCOP(=O)(OCC)SCSP(=S)(OCC)OCC"
Output: -37.2

Input: Return reported max response; argument: "CCOP(=O)(OCC)SCSCC"
Output: -57

====

target: Thyroid hormone receptor beta (Homo sapiens) (UniProt P10828); assay: qHTS assay for small molecule antagonists of thyroid hormone receptor beta signaling (AID 588547); details: TR-UAS-bla HEK293, beta-lactamase ratio, antagonist mode, 18 h;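 also: cells stimulated with 0.4 nM T3 agonist during compound exposure; % is scaled to controls: 0 for no effect and ±100 for the full control effect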
Sequence (P10828 whole entry, looked up): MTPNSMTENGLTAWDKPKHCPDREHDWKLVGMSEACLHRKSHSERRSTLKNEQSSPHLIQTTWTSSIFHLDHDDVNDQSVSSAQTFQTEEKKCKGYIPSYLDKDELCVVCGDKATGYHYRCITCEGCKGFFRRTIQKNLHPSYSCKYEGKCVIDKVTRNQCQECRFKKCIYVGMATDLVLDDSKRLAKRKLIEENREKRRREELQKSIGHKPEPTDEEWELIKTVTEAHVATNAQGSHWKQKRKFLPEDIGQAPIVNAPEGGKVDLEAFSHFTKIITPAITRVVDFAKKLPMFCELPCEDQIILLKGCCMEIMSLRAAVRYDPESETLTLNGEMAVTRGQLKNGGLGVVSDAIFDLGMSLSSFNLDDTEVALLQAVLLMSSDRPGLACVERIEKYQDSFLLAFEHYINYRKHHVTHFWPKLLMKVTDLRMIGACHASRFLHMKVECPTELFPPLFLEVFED
Inconclusive results are not listed.
Entries and their activity change % (negative = inhibition)
Only the number, expressed in %, is required.

Worked set:
[
  {
    "Compound": "CC1(C)[C@H](C=C(Cl)Cl)[C@H]1C(=O)O[C@H](C#N)c1ccc(F)c(Oc2ccccc2)c1",
    "Measured Value": -23.6
  },
  {
    "Compound": "Nc1ccc([N+](=O)[O-])cc1Cl",
    "Measured Value": -8.47
  },
  {
    "Compound": "CCOS(=O)(=O)OCC",
    "Measured Value": 3.34
  },
  {
    "Compound": "CNC(=O)Oc1cc(C)cc(C(C)C)c1",
    "Measured Value": 4.48
  },
  {
    "Compound": "OC(c1ccc(Cl)cc1)(c1cncnc1)c1ccccc1Cl (centres undefined)",
    "Measured Value": 5.6
  },
  {
    "Compound": "CC[C@H]1CCCC(O[C@H]2CC[C@H](N(C)C)[C@@H](C)O2)[C@@H](C)C(=O)C2=C[C@@H]3[C@@H](C=C[C@@H]4C[C@@H](O[C@@H]5O[C@@H](C)[C@H](OC)[C@@H](OC)[C@H]5OC)C[C@@H]34)[C@@H]2CC(=O)O1 (some centres undefined)",
    "Measured Value": -5.92
  },
  {
    "Compound": "CCOc1nc(F)cc2nc(S(=O)(=O)Nc3c(Cl)cccc3Cl)nn12",
    "Measured Value": -10.3
  },
  {
    "Compound": "CCC(CC)Nc1c([N+](=O)[O-])cc(C)c(C)c1[N+](=O)[O-]",
    "Measured Value": -5.09
  }
]

Okay, next one:
Input: Return reported activity change % (negative = inhibition); argument: "O=C(O)COc1ccc(Cl)cc1"
Output: -4.24

====

assay: Cell Viability - Renal Proximal Tubule (AID 545); conditions: renal proximal tubule cells viability;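 also: cells exposed to compound for 40 hours; nearly all actives have a fitted effect of over 40% in size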
Results filed as inconclusive are left out. Calls of active or inactive are those of the source. The call rests on the fitted dose curve; in most records, active means well fitted cell-killing curve with a large enough effect; inconclusive means small, poorly fitted or top-dose-only effect; inactive means flat fitted curve, though single readings scatter.
Could you please pick one outcome from this set? Yes (active), No (inactive)

// known answers, use as guide
[
  {
    "Compound": "N#CSCSC#N",
    "Assigned Category": "Yes"
  },
  {
    "Compound": "FC(F)(F)c1ccc(Cl)cc1",
    "Assigned Category": "No"
  },
  {
    "Compound": "C[C@@H]1CC[C@@]2(OC1)O[C@H]1[C@@H](O)[C@H]3[C@@H]4CC[C@H]5C[C@@H](O[C@@H]6O[C@H](CO)[C@H](O[C@@H]7O[C@H](CO)[C@@H](O)[C@H](O[C@@H]8OC[C@@H](O)[C@H](O)[C@H]8O)[C@H]7O[C@@H]7O[C@H](CO)[C@@H](O)[C@H](O[C@@H]8O[C@H](CO)[C@@H](O)[C@H](O)[C@H]8O)[C@H]7O)[C@H](O)[C@H]6O)[C@H](O)C[C@]5(C)[C@H]4CC[C@]3(C)[C@H]1[C@@H]2C",
    "Assigned Category": "Yes"
  },
  {
    "Compound": "N#CC(Cl)Cl",
    "Assigned Category": "No"
  },
  {
    "Compound": "CN(C)c1ccc(N=O)cc1",
    "Assigned Category": "Yes"
  }
]

Input: Which outcome was assigned to "Oc1c(Br)c(Br)c(Br)c(Br)c1Br" in this test?
Output: No

Input: Which outcome was assigned to "c1ccc2cc3c(cc2c1)-c1cccc2cccc-3c12" in this test?
Output: No

Input: Which outcome was assigned to "C#CCO" in this test?
Output: No

Input: Which outcome was assigned to O=C(O)C1C(C(=O)O)C2(Cl)C(Cl)=C(Cl)C1(Cl)C2(Cl)Cl (configuration not stated) in this test?
Output: No

Input: Which outcome was assigned to "OC(c1ccc(Cl)cc1)(c1ccc(Cl)cc1)C(Cl)(Cl)Cl" in this test?
Output: No

Input: Which outcome was assigned to "CCCCCCCCn1sccc1=O" in this test?
Output: Yes

Input: Which outcome was assigned to "CC(=O)[O-].CC(=O)[O-].O.O.[Cd+2]" in this test?
Output: Yes

====

assay: Cell Viability - LYMP2-002 (AID 977); conditions: LYMP2-002 lymphoblastoid cell viability, qHTS; series mostly up to 92.2 µM;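 also: compound exposure lasted 24 h at 37 °C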
Inconclusive results are not listed. Calls of active or inactive are those of the source. The call rests on the fitted dose curve; in most records, active means well fitted cell-killing curve with a large enough effect; inconclusive means small, poorly fitted or top-dose-only effect; inactive means flat fitted curve, though single readings scatter.
Could you please pick one outcome from this set? active, inactive

[
  {
    "Structure String": "Clc1ccc(C(c2ccc(Cl)cc2)C(Cl)Cl)cc1",
    "Assigned Category": "inactive"
  }
]

Input: Which outcome was assigned to "C[C@@H]1CC[C@@]2(OC1)O[C@H]1[C@@H](O)[C@H]3[C@@H]4CC[C@H]5C[C@@H](O[C@@H]6O[C@H](CO)[C@H](O[C@@H]7O[C@H](CO)[C@@H](O)[C@H](O[C@@H]8OC[C@@H](O)[C@H](O)[C@H]8O)[C@H]7O[C@@H]7O[C@H](CO)[C@@H](O)[C@H](O[C@@H]8O[C@H](CO)[C@@H](O)[C@H](O)[C@H]8O)[C@H]7O)[C@H](O)[C@H]6O)[C@H](O)C[C@]5(C)[C@H]4CC[C@]3(C)[C@H]1[C@@H]2C" in this test?
Output: active
